Values from paper PMC6409085

Catalogue of Fluorescence intensity, fluorescence competitive binding assay, OBP11 values
Target: SfurOBP11 (Sogatella furcifera, UniProt V5T6E3)
Sequence (V5T6E3 entry or part of it): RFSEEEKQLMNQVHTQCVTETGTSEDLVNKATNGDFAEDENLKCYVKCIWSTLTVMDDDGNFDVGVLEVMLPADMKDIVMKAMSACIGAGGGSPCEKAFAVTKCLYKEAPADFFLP
Test: biochemical
Assay type: binding
Details: ligand concentration 18, replicate 2
Returns: the value as a bare number; no unit string appended.

[
  {
    "compound": "CCCCCC(C)=O",
    "measured_on": "SfurOBP11 (Sogatella furcifera, UniProt V5T6E3)",
    "number": 20256
  },
  {
    "compound": "CCCCCCCCCCOCCCCCCCCCC",
    "measured_on": "SfurOBP11 (Sogatella furcifera, UniProt V5T6E3)",
    "number": 81987
  }
]

Q. Fill blank: measured Fluorescence intensity, fluorescence competitive binding assay, OBP11 of the compound CC/C=C\CCO [(Z)-3-hexenol] is ____.
A. 16090

Q. And then CCCCCCCC=O , what is it?
A. 32227

Q. And then CCCCCCCCCCCCO , what is it?
A. 19005

###

Target: SfurOBP2 (Sogatella furcifera, UniProt V5T759)
Sequence (V5T759 entry or part of it): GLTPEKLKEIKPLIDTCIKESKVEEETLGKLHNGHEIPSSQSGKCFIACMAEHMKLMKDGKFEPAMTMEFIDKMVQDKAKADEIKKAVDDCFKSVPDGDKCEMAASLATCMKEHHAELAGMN
Test: biochemical
Type: binding
Settings: ligand concentration 20 (unit not given), replicate column 3 of 3
observation_type: Fluorescence competitive binding assay, OBP2 (raw fluorescence reading)
Returns: the value as a bare number; no unit string appended.

Guide cases for Fluorescence competitive binding assay, OBP2 (raw fluorescence reading), answers given:
[
  {
    "molecule": "CC(=O)c1ccccc1",
    "number": 13920
  },
  {
    "molecule": "C[C@@H]1CC[C@H]2C(C)(C)[C@H]3C[C@@]12CC[C@@]3(C)O",
    "number": 23245
  },
  {
    "molecule": "CCCCCCCC",
    "number": 10932
  },
  {
    "molecule": "CC1=CC[C@@H](C(C)(C)O)CC1",
    "number": 12894
  },
  {
    "molecule": "CCCCCCCCCCC",
    "number": 15281
  }
]

Q. Under SfurOBP2 (Sogatella furcifera, UniProt V5T759): Fluorescence competitive binding assay, OBP2 (raw fluorescence reading) value of CCCCCCCCCCCCC=O ?
A. 19174

Q. And then CCCCCCCCCCCCCCCCCCC , what is it?
A. 24323

###

Test system: S. furcifera adults
Assay: Y-tube olfactometer behavioral trials
Format: in vivo, Sogatella furcifera
Details: odorant 50 µL/L vs hexane; adults
So basically: number of insects choosing hexane arm at 10 or higher? That is Satisfied. Lower than 10? That is Not satisfied.

[
  {
    "molecule": "C=C(C)C1CC=C(C)CC1 (single isomer, unassigned; (+)) [(+)-limonene]",
    "measured_on": "S. furcifera adults",
    "class": "Not satisfied"
  },
  {
    "molecule": "CCCCCCCCCCC",
    "measured_on": "S. furcifera adults",
    "class": "Not satisfied"
  },
  {
    "molecule": "Cc1ccc(C(C)C)cc1",
    "measured_on": "S. furcifera adults",
    "class": "Satisfied"
  },
  {
    "molecule": "CC(=O)/C=C/C1=C(C)CCCC1(C)C",
    "measured_on": "S. furcifera adults",
    "class": "Satisfied"
  }
]

Kindly review the next molecule as well.
Q. Assess whether reported number of insects choosing hexane arm for CCCCCCCCCCCCCC sits at 10 or higher.
A. Satisfied

###

Catalogue of Fluorescence competitive binding assay, OBP2 (raw fluorescence reading) values
Target: SfurOBP2 (Sogatella furcifera, UniProt V5T759)
Assay: biochemical
Format: binding
Details: ligand concentration 14 (unit not given), replicate column 3 of 3
Returns: the value as a bare number; no unit string appended.

[
  {
    "molecule": "CCCCCCCCCCCCC=O",
    "number": 18074
  },
  {
    "molecule": "CCCCCCCCC=O",
    "number": 18015
  },
  {
    "molecule": "CCCCCCCCCCOCCCCCCCCCC",
    "number": 49253
  },
  {
    "molecule": "CCCCCC(C)=O",
    "number": 14409
  },
  {
    "molecule": "Cc1cc(C(C)(C)C)c(O)c(C(C)(C)C)c1",
    "number": 14001
  },
  {
    "molecule": "CC(C)COC(=O)CCCCC(=O)OCC(C)C [DA(diisobutyl adipate)]",
    "number": 15283
  }
]

Q. Fill blank: measured Fluorescence competitive binding assay, OBP2 (raw fluorescence reading) of the molecule CCCCCCCCCCCCCCCC is ____.
A. 12906

Q. And then O=Cc1ccccc1 , what is it?
A. 13618

Q. And then CC/C=C\CCO [(Z)-3-hexenol] , what is it?
A. 14820

Q. And then CCCCCCCCCCC , what is it?
A. 13266

Q. And then C/C(=C\CO)CCC[C@H](C)CCC[C@H](C)CCCC(C)C , what is it?
A. 20399

Q. And then CCCCCC=O , what is it?
A. 15552

Q. And then C=C1CC/C=C(\C)CC[C@@H]2[C@@H]1CC2(C)C , what is it?
A. 16267

Q. And then c1ccc2ccccc2c1 , what is it?
A. 17420

Q. And then CCCCCCCCCCCCCC , what is it?
A. 20531

Q. And then CCCCCCCCCCCCCCCC(=O)OC [MH(methyl hexadecanoate)] , what is it?
A. 65733

Q. And then CC1=CC[C@@H](C(C)(C)O)CC1 , what is it?
A. 14363

###

Target: SfurOBP11 (Sogatella furcifera, UniProt V5T6E3)
Assay: biochemical
Type: binding
Details: ligand concentration 8, replicate 2
observation_type: Fluorescence intensity, fluorescence competitive binding assay, OBP11

Guide cases for Fluorescence intensity, fluorescence competitive binding assay, OBP11, answers given:
[
  {
    "compound": "COC(=O)c1ccccc1 [benzoic acid methylester]",
    "result": 24972
  },
  {
    "compound": "C=C1CC/C=C(\\C)CC[C@@H]2[C@@H]1CC2(C)C [β-caryophyllene]",
    "result": 24474
  },
  {
    "compound": "CC1=CC[C@@H](C(C)(C)O)CC1 [α-terpineol]",
    "result": 26158
  },
  {
    "compound": "C=CC(C)(O)CCC=C(C)CCC=C(C)C (mixture of isomers) [nerolidol]",
    "result": 25493
  },
  {
    "compound": "CCC/C=C/CO [(E)-2-hexenol]",
    "result": 29546
  },
  {
    "compound": "OC1CCCCC1 [cyclohexanol]",
    "result": 24220
  },
  {
    "compound": "C=C(C)C1CC=C(C)CC1 (single isomer, unassigned; (+)) [(+)-limonene]",
    "result": 21246
  },
  {
    "compound": "CCCCCCCCCCCCCCCC [n-hexadecane]",
    "result": 20139
  },
  {
    "compound": "CC(=O)/C=C/C1=C(C)CCCC1(C)C [β-Ionone]",
    "result": 24499
  }
]

Consider the additional compound presented here.
Q. Fill blank: measured Fluorescence intensity, fluorescence competitive binding assay, OBP11 of the compound CC/C=C\CCO [(Z)-3-hexenol] is ____.
A. 21016

###

Target: SfurOBP11 (Sogatella furcifera, UniProt V5T6E3)
Experiment: biochemical
Assay type: binding
Conditions: ligand concentration 20, replicate 1
Catalogue of Fluorescence intensity, fluorescence competitive binding assay, OBP11 values
Returns: the value as a bare number; no unit string appended.

Guide cases for Fluorescence intensity, fluorescence competitive binding assay, OBP11, answers given:
[
  {
    "input_smiles": "CCCCCCCCCCCCCCCCCC",
    "measured_on": "SfurOBP11 (Sogatella furcifera, UniProt V5T6E3)",
    "number": 26046
  },
  {
    "input_smiles": "Cc1ccc(C(C)C)cc1",
    "measured_on": "SfurOBP11 (Sogatella furcifera, UniProt V5T6E3)",
    "number": 24558
  }
]

Q. Fill blank: measured Fluorescence intensity, fluorescence competitive binding assay, OBP11 of the compound OC1CCCCC1 is ____.
A. 23863

Q. And then C/C(=C\CO)CCC[C@H](C)CCC[C@H](C)CCCC(C)C , what is it?
A. 26659

Q. And then CC(=O)c1ccccc1 , what is it?
A. 23354

Q. And then O=C(c1ccccc1)c1ccccc1 , what is it?
A. 15275

Q. And then CCCCCCCCCCCCC=O , what is it?
A. 31322

Q. And then CCCCCCC=CCO , what is it?
A. 30015

Q. And then C=C1CC/C=C(\C)CC[C@@H]2[C@@H]1CC2(C)C , what is it?
A. 30296

Q. And then CC1=CC[C@@H](C(C)(C)O)CC1 , what is it?
A. 25268
